Experiment: Cytotoxicity against human MT4 cells assessed as cell growth inhibition incubated for 5 days by MTT assay
Type: toxicity, cell-based
Conditions: time 5 day
Task for the reader: assign each of the following molecules its reported CC50 at 120 h.
// note: answer is a bare numeric in µM

Find the recorded CC50 at 120 h belonging to "Cc1cc(C#N)cc(C)c1Oc1nc(NC2CCN(c3ccc(NS(=O)(=O)C4CC4)cc3)CC2)ncc1C(N)=O" and report it.
208

Could you share which CC50 at 120 h value was measured for "Cc1cc(C#N)cc(C)c1Oc1nc(NC2CCN(c3ccc(NS(=O)(=O)N(C)C)cc3)CC2)ncc1C(N)=O" ?
209

Which CC50 at 120 h value belongs to "Cc1cc(C#N)cc(C)c1Oc1nc(Nc2ccc(C#N)nc2)ncc1C(N)=O" ?
27.9

Record request: CC50 at 120 h value, item "Cc1cc(C#N)cc(C)c1Oc1nc(Nc2ccc(CN3CCN(S(N)(=O)=O)CC3)cc2)ncc1C(N)=O"
173

Record request: CC50 at 120 h value, item "Cc1cc(C#N)cc(C)c1Oc1nc(NC2CCN(c3ccc(N)cc3)CC2)ncc1C(N)=O"
183

Entry "Cc1cc(C#N)cc(C)c1Oc1nc(Nc2ccc(C#N)cc2)ncc1C(N)=O" : reported CC50 at 120 h = ?
32.2

Please look up its CC50 at 120 h: "Cc1cc(C#N)cc(C)c1Oc1nc(Nc2ccc(C#N)c(F)c2)ncc1C(N)=O"
34.9

Find the recorded CC50 at 120 h belonging to "Cc1cc(C#N)cc(C)c1Oc1nc(NC2CCN(c3ccc(NS(N)(=O)=O)cc3)CC2)ncc1C(N)=O" and report it.
176

Can you look up the measured CC50 at 120 h of "Cc1cc(C#N)cc(C)c1Oc1nc(NC2CCN(Cc3ccc(S(N)(=O)=O)cc3)CC2)ncc1C(N)=O" for me?
198

* * *

Assay: Fold resistance, ratio of EC50 for antiviral activity against NNRTI-resistant HIV-1 harboring L100I mutant infected in human MT4 cells assessed as virus-induced cytopathicity to EC50 for antiviral activity against HIV-1 IIIB infected in human MT4 cells assessed as reduction in virus induced cytopathic effect
Assay type: functional
quantity_measured: Ratio EC50
Give a plain numeric answer without units written out.

Find the recorded Ratio EC50 belonging to "Cc1cc(C#N)cc(C)c1Oc1nc(NC2CCN(Cc3ccc(C(N)=O)cc3)CC2)ncc1C(N)=O" and report it.
1.6

I would be grateful if you could share the reported Ratio EC50 for "Cc1cc(C#N)cc(C)c1Oc1nc(NC2CCN(c3ccc(NS(C)(=O)=O)cc3)CC2)ncc1C(N)=O" .
12.7

So what does the record say about Ratio EC50 for "Cc1cc(C#N)cc(C)c1Oc1nc(NC2CCN(c3ccc(N)cc3)CC2)ncc1C(N)=O" ?
6.6

Item "Cc1cc(C#N)cc(C)c1Oc1nc(NC2CCN(c3ccc(NS(=O)(=O)C4CC4)cc3)CC2)ncc1C(N)=O" has what recorded Ratio EC50?
8.5

Quick one: Ratio EC50 of "Cc1cc(C#N)cc(C)c1Oc1nc(NC2CCN(c3ccc(NS(=O)(=O)N(C)C)cc3)CC2)ncc1C(N)=O" ?
21.1

Request the reported Ratio EC50 associated with "Cc1cc(C#N)cc(C)c1Oc1nc(NC2CCN(c3ccc(NS(N)(=O)=O)cc3)CC2)ncc1C(N)=O"
11.3

Would you mind telling me what Ratio EC50 value was observed for "Cc1cc(C#N)cc(C)c1Oc1nc(NC2CCN(Cc3ccc(S(C)(=O)=O)cc3)CC2)ncc1C(N)=O" ?
1.9

Dear colleague, I am looking for the recorded Ratio EC50 of the following compound: "Cc1cc(C#N)cc(C)c1Oc1nc(NC2CCN(Cc3ccc(B(O)O)cc3)CC2)ncc1C(N)=O"
3.2

Fill in the blank: the reported Ratio EC50 of "Cc1cc(C#N)cc(C)c1Oc1nc(Nc2ccc(C#N)cc2)ncc1C(N)=O" is ____.
14.7

Entry "Cc1cc(C#N)cc(C)c1Oc1nc(NC2CCN(Cc3ccc(S(N)(=O)=O)cc3)CC2)ncc1C(N)=O" has what Ratio EC50?
4.5

Entry "Cc1cc(C#N)cc(C)c1Oc1nc(Nc2ccc(C#N)c(F)c2)ncc1C(N)=O" : reported Ratio EC50 = ?
4.6

* * *

Tested on: Human immunodeficiency virus 1
Assay: Antiviral activity against HIV-1 RES056 infected in human MT4 cells assessed as reduction in virus induced cytopathic effect incubated for 5 days by MTT assay
Assay type: functional, organism-based
Conditions: Human immunodeficiency virus 1, RES056, MT4, 120 h
pEC50: −log10 of the molar value.
Values of pEC50 greater than or equal to 5 map to 1; values below map to -1.

Is pEC50 at least 5? Consider Cc1ccnc2c1NC(=O)c1cccnc1N2C1CC1 [NEVIRAPINE]
-1

I'd appreciate it if you could say whether "Cc1cc(C#N)cc(C)c1Oc1nc(NC2CCN(Cc3ccc(S(C)(=O)=O)cc3)CC2)ncc1C(N)=O" has pEC50 at least equal to 5.
1

Quick check, pEC50 >= 5? "Cc1cc(C#N)cc(C)c1Oc1nc(NC2CCN(Cc3ccc(B(O)O)cc3)CC2)ncc1C(N)=O"
1

Determine whether this compound has pEC50 no lower than 5: "Cc1cc(C#N)cc(C)c1Oc1nc(Nc2ccc(C#N)nc2)ncc1C(N)=O"
-1

Is pEC50 for "Cc1cc(C#N)cc(C)c1Oc1nc(NC2CCN(Cc3ccc(C(N)=O)cc3)CC2)ncc1C(N)=O" at or above 5?
-1

Is it the case that "Cc1cc(C#N)cc(C)c1Oc1nc(NC2CCN(Cc3ccc(S(N)(=O)=O)cc3)CC2)ncc1C(N)=O" has pEC50 reaching or exceeding 5?
1

Given the entry "Cc1cc(C#N)cc(C)c1Oc1nc(NC2CCN(c3ccc(NS(=O)(=O)C4CC4)cc3)CC2)ncc1C(N)=O" , answer whether its pEC50 meets or surpasses 5.
1

Given the entry "Cc1cc(C#N)cc(C)c1Oc1nc(NC2CCN(c3ccc(NS(N)(=O)=O)cc3)CC2)ncc1C(N)=O" , answer whether its pEC50 meets or surpasses 5.
-1

Record "Cc1cc(C#N)cc(C)c1Oc1nc(Nc2ccc(CN3CCN(S(N)(=O)=O)CC3)cc2)ncc1C(N)=O" ; criterion: pEC50 no lower than 5. Met?
-1

Is the recorded value of pEC50 equal to or greater than 5 for this compound? Cc1cc(C#N)cc(C)c1Oc1nc(Nc2ccc(C#N)cc2)nc(N)c1Br [ETRAVIRINE]
1

In plain terms: is recorded pEC50 at least 5 for "Cc1cc(C#N)cc(C)c1Oc1nc(NC2CCN(c3cccc(C(N)=O)c3)CC2)ncc1C(N)=O" ?
-1

Item "Cc1cc(C#N)cc(C)c1Oc1nc(Nc2ccc(CN3CCNCC3)cc2)ncc1C(N)=O" with pEC50 of 5 or above?
-1

// inclusive: pEC50 at least 5? input: "Cc1cc(C#N)cc(C)c1Oc1nc(NC2CCN(c3cccc(C#N)c3)CC2)ncc1C(N)=O"
-1

Check the entry "Cc1cc(C#N)cc(C)c1Oc1nc(NC2CCN(c3ccc(NS(C)(=O)=O)cc3)CC2)ncc1C(N)=O" : does pEC50 equal or exceed 5?
-1

Reported pEC50 at or above 5? "Cc1cc(C#N)cc(C)c1Oc1nc(Nc2ccc(CN3CCN(S(C)(=O)=O)CC3)cc2)ncc1C(N)=O"
-1

Would you say "Cc1cc(C#N)cc(C)c1Oc1nc(NC2CCN(c3ccc(NS(=O)(=O)N(C)C)cc3)CC2)ncc1C(N)=O" shows pEC50 at minimum 5?
-1

Check if pEC50 >= 5 (inclusive). Item: "Cc1cc(C#N)cc(C)c1Oc1nc(NC2CCN(c3ccc(N)cc3)CC2)ncc1C(N)=O"
1

* * *

Assay: Selectivity index, ratio of CC50 for cytotoxicity against human MT4 cells assessed as reduction in cell viability to EC50 for antiviral activity against NNRTI-resistant HIV-1 harboring E138K mutant infected in human MT4 cells
Type: toxicity, cell-based
Settings: read-out: Ratio CC50/EC50
For each entry below, report its selectivity ratio value.
In your answer, state the number alone without any accompanying words.

Need selectivity ratio of "Cc1cc(C#N)cc(C)c1Oc1nc(NC2CCN(c3ccc(NS(=O)(=O)N(C)C)cc3)CC2)ncc1C(N)=O" , thanks.
8010

Form field: reported selectivity ratio of "Cc1cc(C#N)cc(C)c1Oc1nc(NC2CCN(c3ccc(N)cc3)CC2)ncc1C(N)=O"
881

State the recorded selectivity ratio for this entry: "Cc1cc(C#N)cc(C)c1Oc1nc(NC2CCN(c3ccc(NS(N)(=O)=O)cc3)CC2)ncc1C(N)=O"
1470

Quick one: selectivity ratio for "Cc1cc(C#N)cc(C)c1Oc1nc(Nc2ccc(C#N)cc2)ncc1C(N)=O" ?
459

Could you share which selectivity ratio value was measured for "Cc1cc(C#N)cc(C)c1Oc1nc(Nc2ccc(C#N)c(F)c2)ncc1C(N)=O" ?
681

Any idea what selectivity ratio was measured for "Cc1cc(C#N)cc(C)c1Oc1nc(NC2CCN(c3ccc(NS(=O)(=O)C4CC4)cc3)CC2)ncc1C(N)=O" ?
283

Tell me the measured selectivity ratio of "Cc1cc(C#N)cc(C)c1Oc1nc(NC2CCN(Cc3ccc(S(N)(=O)=O)cc3)CC2)ncc1C(N)=O" , please.
680
